Source listed as the supplement of paper PMC10065799.

System: c-Abl (mouse)
measurement.protocol: phosphorylation enrichment, bacterial display (enrichment ratio); higher = better substrate or ligand; peptides without Tyr show the background;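 further: 11-residue human phosphosite peptides and single-mutation variants displayed on the E. coli surface, counted by deep sequencing, each peptide's frequency after selection divided by its frequency in the unselected input library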;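 further: frequency after pTyr selection over input frequency; kinase dosed for 20-30% of maximal phosphorylation in three min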
Would you please tag the item yes (1) when its phosphorylation enrichment is 0.6 or above, and no (0) when it is below?

Before answering, review these 8 worked examples.
chain.sequence: IINENYDYLKG [NUP98_Y1664]
class: yes (1)
--
chain.sequence: RGFRQDAFDGK [HLA-A_Y140_YF]
class: yes (1)
--
chain.sequence: PRAEWYRDDLL [MYOM2_Y317_V321L]
class: yes (1)
--
chain.sequence: SDQRRYSLIDP [CLIP2_Y972_R977P]
class: no (0)
--
chain.sequence: ATDLAYYLVCK [ASL_Y375_R379C]
class: yes (1)
--
chain.sequence: TLEKYYFAFPG [SLC1A1_Y51_F50Y]
class: yes (1)
--
chain.sequence: YNNYGYGNDGF [HNRNPH3_Y161]
class: no (0)
--
chain.sequence: DLDPNYVLSSR [CKM_Y125]
class: no (0)

Hello, I need to know if PQDSAYHSGIQ [FLG_Y3940_S3935P] has measured phosphorylation enrichment not below 0.6. Thanks!
yes (1)

Please indicate if the recorded phosphorylation enrichment for VDSNPYSRLMA [UBA5_Y53] meets or exceeds 0.6.
no (0)

Reported phosphorylation enrichment reaches at least 0.6 for YGIAQYCCRMG [LRRK2_Y2023] ?
yes (1)

Would you say TEQMAYCPIQC [SHC4_Y403] shows phosphorylation enrichment at minimum 0.6?
yes (1)

Entry NTYEKYLEEEY [TF_Y669_G671E] : is its phosphorylation enrichment no less than 0.6?
yes (1)

Form field: phosphorylation enrichment at least 0.6? Entry: EFITRYIASLK [PSMA7_Y110_YF]
yes (1)

----------
target.entity: FGFR1 (UniProt P11362)
Sequence (P11362 whole entry, looked up): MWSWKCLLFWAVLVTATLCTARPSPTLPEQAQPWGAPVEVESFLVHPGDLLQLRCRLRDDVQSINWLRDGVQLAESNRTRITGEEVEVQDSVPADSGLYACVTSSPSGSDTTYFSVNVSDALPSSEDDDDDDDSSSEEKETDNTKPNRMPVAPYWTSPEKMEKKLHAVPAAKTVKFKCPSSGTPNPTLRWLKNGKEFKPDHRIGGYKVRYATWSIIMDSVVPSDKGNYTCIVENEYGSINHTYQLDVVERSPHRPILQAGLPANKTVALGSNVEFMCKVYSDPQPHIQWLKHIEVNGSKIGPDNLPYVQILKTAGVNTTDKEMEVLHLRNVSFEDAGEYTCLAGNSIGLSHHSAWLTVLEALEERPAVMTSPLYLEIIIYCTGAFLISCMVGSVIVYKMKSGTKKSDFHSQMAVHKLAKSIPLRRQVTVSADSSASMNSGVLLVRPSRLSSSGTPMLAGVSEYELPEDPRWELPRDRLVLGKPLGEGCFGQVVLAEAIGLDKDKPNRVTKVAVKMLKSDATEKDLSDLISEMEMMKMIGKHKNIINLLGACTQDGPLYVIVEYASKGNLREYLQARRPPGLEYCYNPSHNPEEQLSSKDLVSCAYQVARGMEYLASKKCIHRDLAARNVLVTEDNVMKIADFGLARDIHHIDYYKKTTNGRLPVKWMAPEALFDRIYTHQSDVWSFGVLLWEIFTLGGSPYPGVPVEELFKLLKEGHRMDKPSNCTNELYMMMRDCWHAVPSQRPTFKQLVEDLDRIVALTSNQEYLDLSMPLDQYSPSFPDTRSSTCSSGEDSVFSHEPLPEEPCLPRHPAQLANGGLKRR
measurement.protocol: phosphorylation enrichment, bacterial display (enrichment ratio); higher = better substrate or ligand; peptides without Tyr show the background
assay.readout: phosphorylation enrichment
Keep the answer to the number alone.

Record excerpt, results attached:
chain.sequence: WFPANYVKLLS [ITSN1_Y1132]
assay.readout: phosphorylation enrichment
number: 0.763
--
chain.sequence: CTTIHYNFMHN [TP53_Y234_C238H_YF]
assay.readout: phosphorylation enrichment
number: 0.457
--
chain.sequence: GEHSIYCTVNN [CD55_Y266]
assay.readout: phosphorylation enrichment
number: 0.955
--
chain.sequence: IYQASYYRRGD [LTK_Y676_R673Q]
assay.readout: phosphorylation enrichment
number: 0.479
--
chain.sequence: ECKASYPGKIT [PRSS3_Y232]
assay.readout: phosphorylation enrichment
number: 0.431

Record for PNRILYGDFRQ [MYH6_Y717] under target or system FGFR1 (UniProt P11362): phosphorylation enrichment reported as 0.501

Lab entry: FGFR1 (UniProt P11362) assay, sequence LIHLHYIRKDY [BBS4_Y43] , phosphorylation enrichment = 0.517

Observed phosphorylation enrichment, FGFR1 (UniProt P11362), LKEIHYPPYTD [ALDH3B2_Y362] : 0.645

Case LHSEAYLKFIE [PBRM1_Y1610_YF] , FGFR1 (UniProt P11362), phosphorylation enrichment recorded as 0.939

----------
System: c-Abl (mouse)
measurement.protocol: phosphorylation enrichment, bacterial display (enrichment ratio); higher = better substrate or ligand; peptides without Tyr show the background
Criterion: phosphorylation enrichment meeting or surpassing 0.7. Met: Criterion met. Not met: Criterion not met.

chain.sequence: NFFEFYVDDPL [GCHFR_Y48_P53L_YF]
target.entity: c-Abl (mouse)
class: Criterion met

Quick check: does AKRKGYDMRVD [NEB_Y2770] have phosphorylation enrichment greater than or equal to 0.7?
Criterion not met

Please tell me: is the sequence TSKLSYLDPRI [TOP1_Y723_N722S] at or over 0.7 in terms of phosphorylation enrichment?
Criterion not met

Given DDSNLYINVKL [MTHFD1_Y52] , state whether its phosphorylation enrichment is at least 0.7.
Criterion met

Identify whether the reported phosphorylation enrichment of the following sequence is 0.7 or greater: FHLLPYTVRAM [PARS2_Y93_YF]
Criterion not met

Has QSSEGYGLGDR [KIAA1210_Y564] a recorded phosphorylation enrichment greater than or equal to 0.7?
Criterion met

Determine whether this sequence has phosphorylation enrichment no lower than 0.7: CHSDDYVHISI [TSC1_Y406_L411I]
Criterion met

Answer whether phosphorylation enrichment of KFLENYLNRLL [PLD2_Y169_YF] is greater than or equal to 0.7.
Criterion not met

Is phosphorylation enrichment for ASTHIYQIMNH [ITK_Y588_V587I] at or above 0.7?
Criterion met

Item TKDTIYKQPMF [GBA_Y451_F450I] with phosphorylation enrichment of 0.7 or above?
Criterion met

Quick check: does EYGFRYELVQY [UGGT2_Y1289] have phosphorylation enrichment greater than or equal to 0.7?
Criterion met

Quick check: does LEFGDCHPLKP [VPS35L_Y32_Y32C] have phosphorylation enrichment greater than or equal to 0.7?
Criterion met

State whether the measured phosphorylation enrichment reaches 0.7, counting equality as reaching it, for QIGRKYKKVRF [F8_Y442_R437Q]
Criterion not met

----------
System: Fer (mouse)
measurement.protocol: phosphorylation enrichment, bacterial display (enrichment ratio); higher = better substrate or ligand; peptides without Tyr show the background
assay.readout: phosphorylation enrichment
No unit in the answer, please; the number alone is enough.

Past entries and their recorded results:
chain.sequence: GKGGSYSKAEW [HLA-E_Y341]
phosphorylation enrichment: 0.368
--
chain.sequence: DLLMQHPKAQG [FAM83C_Y600_Y600H]
phosphorylation enrichment: 0.483
--
chain.sequence: IKGNMYFENSF [EGFR_Y112_R108K_YF]
phosphorylation enrichment: 0.471
--
chain.sequence: TLEKYYFAFPG [SLC1A1_Y51_F50Y]
phosphorylation enrichment: 0.632

Reported phosphorylation enrichment ( KVDKEYEVHVR [GHR_Y226_R229H] ) = 0.498

The recorded phosphorylation enrichment for entry AKQVGCENAGT [PC_Y304_Y304C] equals 0.42

Record SSNPEYLSASD [INSR_Y999] . Reported phosphorylation enrichment: 0.491

Looking up NCLRQYVAGRF [CRB1_Y711_E710Q] , I see its phosphorylation enrichment listed as 0.367

The value of phosphorylation enrichment measured for the sequence VTRLWYPVCFG [ITK_Y336_R335W] turned out to be 0.509

Entry under test: QSSEGYGLGDR [KIAA1210_Y564] . Its phosphorylation enrichment was 0.871

Value of measured phosphorylation enrichment for the entry KKRSVYIKVLF [CC2D2A_Y683_L684I] : 0.451

Sample KNCFKYYMSDD [ATRX_Y203] ; phosphorylation enrichment observed: 0.624

phosphorylation enrichment reported for this sequence SVVVPYEPPEF [TP53_Y220_V225F] : 0.449

Sample SVTCAYSPALN [TP53_Y126_T125A] ; phosphorylation enrichment observed: 0.64

Reported phosphorylation enrichment of CEHRGCLFLAI [TEK_Y897_Y897C_YF] : 0.421

The reported phosphorylation enrichment of the sequence TEALYYTDDTA [ADPRS_Y75] was 1.97

Per the records, this sequence ( DKANRYFSPNF [PTEN_Y336] ) has phosphorylation enrichment equal to 0.375

Reported phosphorylation enrichment of TLQSMSGCDVG [HLA-B_Y123_Y123S] : 0.499

So, TLERHYKELQA [SPTBN2_Y834_E835K] ? Its phosphorylation enrichment was 0.415

// field: phosphorylation enrichment; key: SDYSSYARTSI [TERT_Y949] ; value = 0.542

----------
target.entity: Jak2 (UniProt O60674)
Sequence (O60674 whole entry, looked up): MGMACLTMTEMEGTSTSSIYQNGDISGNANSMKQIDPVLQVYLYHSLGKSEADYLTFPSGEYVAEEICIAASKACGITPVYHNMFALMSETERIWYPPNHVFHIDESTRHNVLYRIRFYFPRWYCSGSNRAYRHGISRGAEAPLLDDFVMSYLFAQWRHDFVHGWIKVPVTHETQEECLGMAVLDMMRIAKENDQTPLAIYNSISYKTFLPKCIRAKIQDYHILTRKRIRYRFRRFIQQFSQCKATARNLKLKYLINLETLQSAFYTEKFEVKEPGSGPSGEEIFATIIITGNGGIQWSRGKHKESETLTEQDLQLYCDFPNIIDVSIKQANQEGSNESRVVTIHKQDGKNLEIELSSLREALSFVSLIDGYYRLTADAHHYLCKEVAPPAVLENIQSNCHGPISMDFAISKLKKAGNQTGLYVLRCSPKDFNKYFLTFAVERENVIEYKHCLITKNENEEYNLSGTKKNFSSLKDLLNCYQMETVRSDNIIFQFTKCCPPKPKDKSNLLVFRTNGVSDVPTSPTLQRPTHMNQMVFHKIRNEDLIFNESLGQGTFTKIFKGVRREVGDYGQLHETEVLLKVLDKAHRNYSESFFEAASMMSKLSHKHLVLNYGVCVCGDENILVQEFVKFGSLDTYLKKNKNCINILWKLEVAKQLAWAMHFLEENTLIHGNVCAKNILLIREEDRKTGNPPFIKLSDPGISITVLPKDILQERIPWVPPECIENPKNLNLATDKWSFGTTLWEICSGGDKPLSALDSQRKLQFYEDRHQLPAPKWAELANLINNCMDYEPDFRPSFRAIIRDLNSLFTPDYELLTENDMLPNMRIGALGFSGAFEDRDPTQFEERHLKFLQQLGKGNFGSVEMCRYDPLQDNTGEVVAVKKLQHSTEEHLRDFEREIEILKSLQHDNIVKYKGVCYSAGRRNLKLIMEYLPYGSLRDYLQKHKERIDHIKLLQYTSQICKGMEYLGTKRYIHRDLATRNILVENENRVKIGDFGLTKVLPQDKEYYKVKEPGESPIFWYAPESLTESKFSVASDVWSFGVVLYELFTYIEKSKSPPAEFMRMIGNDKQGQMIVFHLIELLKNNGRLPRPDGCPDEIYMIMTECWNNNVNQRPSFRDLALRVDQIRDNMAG
measurement.protocol: phosphorylation enrichment, bacterial display (enrichment ratio); higher = better substrate or ligand; peptides without Tyr show the background
Tag: yes (1) if measured phosphorylation enrichment is not below 0.8, no (0) if it is.

// below: answered sequences
chain.sequence: GKGGSYSKAEW [HLA-E_Y341]
class: no (0)
--
chain.sequence: HRNNNYEPNLF [BRCA2_Y57_K53R]
class: yes (1)
--
chain.sequence: AVLSLYASGST [ACTG2_Y144_R148S]
class: yes (1)

Decide: phosphorylation enrichment of MRTMGYMPTEM [CABP5_Y62] >= 0.8?
no (0)

Item CQLENYCNGGG [INS_Y108_Y103C] with phosphorylation enrichment of 0.8 or above?
yes (1)

----------
Test system: AncSZ
measurement.protocol: phosphorylation enrichment, bacterial display (enrichment ratio); higher = better substrate or ligand; peptides without Tyr show the background
Decision: phosphorylation enrichment compared against 0.9; not below it gives rule met, below it gives rule not met.

Before answering, review these 5 worked examples.
chain.sequence: SDFSRYARTSI [TERT_Y949_S948R_YF]
class: rule not met

chain.sequence: LQTYRYHGHSM [PDHA1_Y289]
class: rule not met

chain.sequence: REGAKYVSHGA [ASS1_Y113]
class: rule not met

chain.sequence: FCRITYDIFPF [INTS13_Y67_M66T_YF]
class: rule met

chain.sequence: IKNSGYISQFL [EIF2AK3_Y585_R588Q_YF]
class: rule not met

# check: phosphorylation enrichment of ENEGTYVCIAA [ADAMTSL3_Y1365_T1370A] is greater than or equal to 0.9
rule met

Hi team, for RQSHNYLGGFA [SYK_Y47_R45H] , is the recorded phosphorylation enrichment at or above 0.9?
rule not met

Identify whether the reported phosphorylation enrichment of the following sequence is 0.9 or greater: PRAEWYRDDLL [MYOM2_Y317_V321L]
rule met

Does the sequence KVGPGSLGSGG [RET_Y826_Y826S] have recorded phosphorylation enrichment that is 0.9 or more?
rule not met

Decide: is the reported value of phosphorylation enrichment for GPGLVYRVANK [FLNB_Y1833_G1834R] equal to or greater than 0.9?
rule not met

Reported phosphorylation enrichment reaches at least 0.9 for YPSLPYSPVSS [CAMKK2_Y128_C123Y] ?
rule not met
